Overview of recorded IC50 for various compounds
Target: EGFR L858R/T790M/C797S (Homo sapiens, UniProt P00533, C797S/L858R/T790M)
Sequence (P00533 25-1210 T790M/C797S/L858R): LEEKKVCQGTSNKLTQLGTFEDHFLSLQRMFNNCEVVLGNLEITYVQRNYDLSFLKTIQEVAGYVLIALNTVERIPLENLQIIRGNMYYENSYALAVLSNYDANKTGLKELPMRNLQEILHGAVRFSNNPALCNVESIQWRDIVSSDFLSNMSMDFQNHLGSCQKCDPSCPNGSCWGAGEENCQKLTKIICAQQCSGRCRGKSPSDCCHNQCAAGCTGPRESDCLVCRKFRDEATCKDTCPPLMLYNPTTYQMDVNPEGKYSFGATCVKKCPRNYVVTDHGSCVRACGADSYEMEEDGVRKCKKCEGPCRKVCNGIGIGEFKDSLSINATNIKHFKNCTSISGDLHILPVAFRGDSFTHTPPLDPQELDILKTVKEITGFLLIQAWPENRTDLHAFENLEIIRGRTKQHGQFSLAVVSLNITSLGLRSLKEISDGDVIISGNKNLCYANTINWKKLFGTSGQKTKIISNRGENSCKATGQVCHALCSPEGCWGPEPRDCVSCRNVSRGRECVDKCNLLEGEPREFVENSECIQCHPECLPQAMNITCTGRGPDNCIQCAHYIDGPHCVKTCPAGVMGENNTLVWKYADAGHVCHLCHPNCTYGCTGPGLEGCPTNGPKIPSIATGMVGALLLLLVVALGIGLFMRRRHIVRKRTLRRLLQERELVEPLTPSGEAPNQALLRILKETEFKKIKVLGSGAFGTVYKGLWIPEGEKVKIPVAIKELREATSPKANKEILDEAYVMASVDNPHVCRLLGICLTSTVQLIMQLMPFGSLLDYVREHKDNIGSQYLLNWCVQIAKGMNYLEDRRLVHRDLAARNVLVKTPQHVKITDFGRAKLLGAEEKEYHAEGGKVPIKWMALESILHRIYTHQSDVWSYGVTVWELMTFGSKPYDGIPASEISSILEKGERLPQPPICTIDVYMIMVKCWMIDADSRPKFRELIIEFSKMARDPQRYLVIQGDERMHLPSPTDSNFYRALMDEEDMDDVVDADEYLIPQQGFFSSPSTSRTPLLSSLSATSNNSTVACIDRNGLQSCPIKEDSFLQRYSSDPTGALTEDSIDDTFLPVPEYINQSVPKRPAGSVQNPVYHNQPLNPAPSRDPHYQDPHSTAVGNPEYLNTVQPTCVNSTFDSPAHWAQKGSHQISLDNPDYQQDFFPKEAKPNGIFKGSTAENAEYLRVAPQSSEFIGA
Experiment: Biochemical EGFR kinase assay (Lance Ultra TR-FRET), L858R/T790M/C797S
Settings: Km ATP; read-out: IC50 L858R/T790M/C797S (nM) Km ATP
// return numeric value only (unit: nM, not printed)

Some compounds with recorded IC50:
| compound | unit_abbreviation | IC50 |
| --- | --- | --- |
| O=C(c1cnc(Nc2ccnc(-c3cnn(S(=O)(=O)C4CC4)c3)n2)cc1N[C@H]1CC[C@](O)(CO)CC1)C1CC1 | nM | 0.1 |
| CN(C)C[C@H]1CC[C@H](CNc2cc(Nc3ccnc(-c4cnn(C5CC5)c4)n3)ncc2C(=O)C2CC2)CC1 | nM | 3.5 |
| CC(=O)c1cnc(Nc2ccnc(-c3cnn(S(=O)(=O)C4CC4)c3)n2)cc1OC[C@H]1CC[C@H](CN(C)C)CC1 | nM | 5.8 |
| CN(C)C[C@H]1CC[C@H](CNc2cc(Nc3ccnc(-c4cn[nH]c4)n3)ncc2C(=O)C2CC2)CC1 | nM | 5.7 |
| O=C(c1cnc(Nc2ccnc(-c3cnn(S(=O)(=O)C4CC4)c3)n2)cc1NC1CCCN(CCF)C1)C1CC1 (stereo not shown) | nM | 1.9 |

Lab note: measured IC50 of CC(=O)c1cnc(Nc2ccnc(-c3cnn(S(=O)(=O)C4CC4)c3)n2)cc1NC(C)(C)C(C)O (stereo not shown) was 7.3

Lab note: measured IC50 of `CC(C)Nc1cc(Nc2ccnc(-c3cnn(S(=O)(=O)C4CC4)c3)n2)ncc1C(=O)C1CC1` was 1.1
